Target: Human immunodeficiency virus type 1 reverse transcriptase (Human immunodeficiency virus 1)
property measured: pIC50
One number for each entry, as −log10 of the molar value.

Entry Cc1ccc(C)c(/C=C2\SC(=O)N(CCC(=O)Nc3ccccc3O)C2=O)c1 , tested on Human immunodeficiency virus type 1 reverse transcriptase (Human immunodeficiency virus 1), has a reported pIC50 of 5.88

====

Test: Inhibition of bovine lens ALR2
Type: tissue-based, Bos taurus
property measured: pIC50
One number for each entry, as −log10 of the molar value.

Noted for O=C(O)CN1C(=O)S/C(=C\c2cccc(Oc3ccccc3)c2)C1=O : its pIC50 reads 6.89

====

Tested on: Candida albicans
Assay: Antifungal activity against Candida albicans
Format: functional
property measured: MIC (µg/mL)
One number for each entry, in µg/mL.

Solved entries (count: 4):
Value of measured MIC for the entry CC1(C)S[C@@H]2[C@H](NC(=O)[C@H](N)c3ccccc3)C(=O)N2[C@H]1C(=O)O : 500

Kindly note the recorded MIC for O=C(CN1C(=O)S/C(=C\c2cccc(-c3cc(=O)c4ccccc4o3)c2)C1=O)c1ccc(F)cc1 , which is 6.25

MIC reading for Cc1ccc(C)c(/C=C2\SC(=O)N(CCC(=O)Nc3ccccc3O)C2=O)c1 : 12.5

The reported MIC of the compound O=C(CN1C(=O)S/C(=C\c2cccc(-c3cc(=O)c4ccccc4o3)c2)C1=O)c1ccc([N+](=O)[O-])cc1 was 6.25

Next item in the queue.
The compound listed as OC(Cn1cncn1)(Cn1cncn1)c1ccc(F)cc1F shows MIC equal to 12.5
